Reported EC50 values follow for various compounds
biological target: Adenosine A2b receptor (Homo sapiens); experiment: FLIPR intracellular Ca2+ functional assay, recombinant CHO cells (A2b/Gα16); conditions: read-out: EC50 values (agonist activity at adenosine receptors) A2B
Sequence (P29275 whole entry): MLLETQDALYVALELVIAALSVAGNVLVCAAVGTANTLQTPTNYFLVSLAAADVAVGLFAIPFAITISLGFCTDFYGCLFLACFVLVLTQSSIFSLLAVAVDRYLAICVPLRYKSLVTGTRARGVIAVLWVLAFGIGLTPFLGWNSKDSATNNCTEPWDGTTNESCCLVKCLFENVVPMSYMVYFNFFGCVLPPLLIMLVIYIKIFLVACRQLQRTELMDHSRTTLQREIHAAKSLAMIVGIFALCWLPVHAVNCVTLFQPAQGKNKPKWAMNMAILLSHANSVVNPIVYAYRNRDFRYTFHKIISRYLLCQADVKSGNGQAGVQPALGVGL
recordedEndpoint: EC50

{"compound": "O[C@@H]1[C@@H](CF)C[C@@H](n2cnc3c(N[C@H]4CCN(c5cccc(Cl)c5)C4)ncnc32)[C@@H]1O [Example 1]", "recordedEndpoint": "EC50", "reportedResult": "> 30 µM"}
{"compound": "O[C@@H]1[C@@H](CF)C[C@@H](n2cnc3c(N[C@H]4CCN(c5ccc(C(F)(F)F)cc5)C4)ncnc32)[C@@H]1O [Example 7]", "recordedEndpoint": "EC50", "reportedResult": "> 30 µM"}
{"compound": "O[C@@H]1[C@@H](CF)C[C@@H](n2cnc3c(N[C@H]4CCN(c5ccc(C(F)(F)F)cn5)C4)ncnc32)[C@@H]1O [Example 4]", "recordedEndpoint": "EC50", "reportedResult": "> 30 µM"}
{"compound": "O[C@@H]1[C@@H](CF)C[C@@H](n2cnc3c(N[C@H]4CCN(c5ccc(Cl)cn5)C4)ncnc32)[C@@H]1O [Example 6]", "recordedEndpoint": "EC50", "reportedResult": "> 30 µM"}
{"compound": "CC[C@H](Cc1sccc1Cl)Nc1ncnc2c1ncn2[C@@H]1C[C@H](CF)[C@@H](O)[C@H]1O [Example 2]", "recordedEndpoint": "EC50", "reportedResult": "3.4 µM"}

----------
biological target: Adenosine A3 receptor (Homo sapiens); experiment: FLIPR intracellular Ca2+ functional assay, recombinant CHO cells (A3/Gα6qi4myr); conditions: read-out: EC50 values (agonist activity at adenosine receptors) A3
Sequence (P0DMS8 whole entry): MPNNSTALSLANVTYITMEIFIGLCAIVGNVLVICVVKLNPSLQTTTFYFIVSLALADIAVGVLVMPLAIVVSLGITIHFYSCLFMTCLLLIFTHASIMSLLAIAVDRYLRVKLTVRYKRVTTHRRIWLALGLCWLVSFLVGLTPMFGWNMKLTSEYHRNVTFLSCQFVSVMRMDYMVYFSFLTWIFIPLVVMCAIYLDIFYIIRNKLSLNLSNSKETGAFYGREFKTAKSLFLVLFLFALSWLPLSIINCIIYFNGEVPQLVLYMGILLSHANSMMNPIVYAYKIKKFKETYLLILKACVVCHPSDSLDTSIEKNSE
recordedEndpoint: EC50

{"smilesData": "O[C@@H]1[C@@H](COC(F)(F)F)C[C@@H](n2cnc3c(N[C@H]4CCN(c5ccc(C(F)(F)F)cc5)C4)ncnc32)[C@@H]1O", "assayedTarget": "Adenosine A3 receptor (Homo sapiens)", "reportedResult": "> 50 µM"}
{"smilesData": "O[C@@H]1[C@@H](CF)C[C@@H](n2cnc3c(N[C@H]4CCN(c5ccc(C(F)(F)F)cn5)C4)ncnc32)[C@@H]1O", "assayedTarget": "Adenosine A3 receptor (Homo sapiens)", "reportedResult": "> 50 µM"}
{"smilesData": "O[C@@H]1[C@@H](CF)C[C@@H](n2cnc3c(N[C@H]4CCN(c5ccc(C(F)(F)F)cc5)C4)ncnc32)[C@@H]1O", "assayedTarget": "Adenosine A3 receptor (Homo sapiens)", "reportedResult": "> 50 µM"}
{"smilesData": "O[C@@H]1[C@@H](CF)C[C@@H](n2cnc3c(N[C@H]4CCN(c5cccc(Cl)c5)C4)ncnc32)[C@@H]1O", "assayedTarget": "Adenosine A3 receptor (Homo sapiens)", "reportedResult": "> 50 µM"}
{"smilesData": "CC[C@H](Cc1sccc1Cl)Nc1ncnc2c1ncn2[C@@H]1C[C@H](CF)[C@@H](O)[C@H]1O", "assayedTarget": "Adenosine A3 receptor (Homo sapiens)", "reportedResult": "> 40 µM"}

----------
target: Adenosine A2a receptor (Homo sapiens, UniProt P29274); construct: expressed in transfected cells; host or cells: CHO (Chinese hamster ovary) cells, stably double-transfected; test: FLIPR intracellular Ca2+ functional assay, recombinant CHO cells (A2a/Gα16); format: cell-based
Sequence (P29274 whole entry): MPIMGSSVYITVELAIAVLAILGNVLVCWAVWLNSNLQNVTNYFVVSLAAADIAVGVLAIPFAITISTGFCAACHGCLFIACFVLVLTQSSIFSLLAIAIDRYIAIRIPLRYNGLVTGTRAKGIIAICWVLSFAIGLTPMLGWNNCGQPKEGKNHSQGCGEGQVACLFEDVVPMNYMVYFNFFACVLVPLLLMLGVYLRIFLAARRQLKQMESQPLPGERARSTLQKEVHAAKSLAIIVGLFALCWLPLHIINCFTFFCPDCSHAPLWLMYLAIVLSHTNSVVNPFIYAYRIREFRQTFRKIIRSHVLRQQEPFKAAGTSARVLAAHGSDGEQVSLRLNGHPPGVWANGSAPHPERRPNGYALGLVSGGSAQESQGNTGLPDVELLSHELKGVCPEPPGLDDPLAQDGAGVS
recordedEndpoint: EC50 values (agonist activity at adenosine receptors) A2A

{"smilesData": "O[C@@H]1[C@@H](CF)C[C@@H](n2cnc3c(N[C@H]4CCN(c5ccc(C(F)(F)F)cc5)C4)ncnc32)[C@@H]1O", "reportedResult": "Inactive"}
{"smilesData": "O[C@@H]1[C@@H](COC(F)(F)F)C[C@@H](n2cnc3c(N[C@H]4CCN(c5ccc(C(F)(F)F)cc5)C4)ncnc32)[C@@H]1O", "reportedResult": "Inactive"}
{"smilesData": "O[C@@H]1[C@@H](CF)C[C@@H](n2cnc3c(N[C@H]4CCN(c5cccc(Cl)c5)C4)ncnc32)[C@@H]1O", "reportedResult": "inactive"}
{"smilesData": "O[C@@H]1[C@@H](CF)C[C@@H](n2cnc3c(N[C@H]4CCN(c5ccc(Cl)cn5)C4)ncnc32)[C@@H]1O", "reportedResult": "Inactive"}
{"smilesData": "O[C@@H]1[C@@H](CF)C[C@@H](n2cnc3c(N[C@H]4CCN(c5ccc(C(F)(F)F)cn5)C4)ncnc32)[C@@H]1O", "reportedResult": "Inactive"}
{"smilesData": "CC[C@H](Cc1sccc1Cl)Nc1ncnc2c1ncn2[C@@H]1C[C@H](CF)[C@@H](O)[C@H]1O", "reportedResult": "inactive"}

----------
{"compound": "O[C@@H]1[C@@H](COC(F)(F)F)C[C@@H](n2cnc3c(N[C@H]4CCN(c5ccc(C(F)(F)F)cc5)C4)ncnc32)[C@@H]1O [Example 10]", "melting point (°C)": 153}
{"compound": "O[C@@H]1[C@@H](COC(F)(F)F)C[C@@H](n2cnc3c(N[C@H]4CCN(c5ccc(Cl)cn5)C4)ncnc32)[C@@H]1O [Example 9]", "melting point (°C)": 130}
{"compound": "O[C@@H]1[C@@H](COC(F)(F)F)C[C@@H](n2cnc3c(N[C@H]4CCN(c5ccc(C(F)(F)F)cn5)C4)ncnc32)[C@@H]1O [Example 8]", "melting point (°C)": 142}
{"compound": "O[C@@H]1[C@@H](CF)C[C@@H](n2cnc3c(N[C@H]4CCN(c5ccc(C(F)(F)F)cc5)C4)ncnc32)[C@@H]1O [Example 7]", "melting point (°C)": 178}
{"compound": "CC[C@H](Cc1sccc1Cl)Nc1ncnc2c1ncn2[C@@H]1C[C@H](COC(F)(F)F)[C@@H](O)[C@H]1O [Example 11]", "melting point (°C)": 140}

----------
Target: Adenosine A1 receptor (Homo sapiens, UniProt P30542)
Sequence (P30542 1-326): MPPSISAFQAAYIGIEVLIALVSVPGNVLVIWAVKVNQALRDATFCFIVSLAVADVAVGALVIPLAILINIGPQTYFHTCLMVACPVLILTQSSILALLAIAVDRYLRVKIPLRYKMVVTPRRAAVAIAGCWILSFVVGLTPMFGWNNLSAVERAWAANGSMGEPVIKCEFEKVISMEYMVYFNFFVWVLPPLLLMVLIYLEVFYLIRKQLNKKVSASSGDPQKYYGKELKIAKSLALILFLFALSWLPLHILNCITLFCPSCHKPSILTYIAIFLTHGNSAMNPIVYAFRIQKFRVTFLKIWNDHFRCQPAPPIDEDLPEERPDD
Experiment: FLIPR intracellular Ca2+ functional assay, recombinant CHO cells (A1/Gα6qi4myr)
Settings: read-out: EC50 values (agonist activity at adenosine receptors) A1

{"compound": "O[C@@H]1[C@@H](CF)C[C@@H](n2cnc3c(N[C@H]4CCN(c5ccc(Cl)cn5)C4)ncnc32)[C@@H]1O [Example 6]", "valueUnit": "µM", "EC50": 1.25}
{"compound": "O[C@@H]1[C@@H](COC(F)(F)F)C[C@@H](n2cnc3c(N[C@H]4CCN(c5cccc(Cl)c5)C4)ncnc32)[C@@H]1O [Example 3]", "valueUnit": "µM", "EC50": 3.69}
{"compound": "CC[C@H](Cc1sccc1Cl)Nc1ncnc2c1ncn2[C@@H]1C[C@H](CF)[C@@H](O)[C@H]1O [Example 2]", "valueUnit": "µM", "EC50": 0.02}
{"compound": "O[C@@H]1[C@@H](CF)C[C@@H](n2cnc3c(N[C@H]4CCN(c5ccc(C(F)(F)F)cn5)C4)ncnc32)[C@@H]1O [Example 4]", "valueUnit": "µM", "EC50": 1.61}
{"compound": "O[C@@H]1[C@@H](CF)C[C@@H](n2cnc3c(N[C@H]4CCN(c5cccc(Cl)c5)C4)ncnc32)[C@@H]1O [Example 1]", "valueUnit": "µM", "EC50": 0.15}
{"compound": "O[C@@H]1[C@@H](COC(F)(F)F)C[C@@H](n2cnc3c(N[C@H]4CCN(c5ccc(C(F)(F)F)cc5)C4)ncnc32)[C@@H]1O [Example 10]", "valueUnit": "µM", "EC50": 15.4}
{"compound": "O[C@@H]1[C@@H](CF)C[C@@H](n2cnc3c(N[C@H]4CCN(c5ccc(C(F)(F)F)cc5)C4)ncnc32)[C@@H]1O [Example 7]", "valueUnit": "µM", "EC50": 1.25}

----------
system: isolated rat adipocytes; test: Antilipolytic effect in isolated rat adipocytes; type: cell-based; settings: Adipocyte, adenosine deaminase-induced lipolysis (glycerol and free fatty acid release)
Quick list: IC50 per entry.

{"smilesData": "O[C@@H]1[C@@H](CF)C[C@@H](n2cnc3c(N[C@H]4CCN(c5ccc(Cl)cn5)C4)ncnc32)[C@@H]1O", "IC50": "10 nM"}
{"smilesData": "O[C@@H]1[C@@H](CF)C[C@@H](n2cnc3c(N[C@H]4CCN(c5ccc(C(F)(F)F)cc5)C4)ncnc32)[C@@H]1O", "IC50": "5 nM"}
{"smilesData": "O[C@@H]1[C@@H](CF)C[C@@H](n2cnc3c(N[C@H]4CCN(c5cccc(Cl)c5)C4)ncnc32)[C@@H]1O", "IC50": "5 nM"}
